The entries below are paired with their reported RP-LC retention time.
# experiment summary: gradient 5% acetonitrile 3 min, to 50% in 2 min, to 85% in 15 min, held 3 min, 100 µL/min
# details: column: Zorbax Extend-C18 2.1 x 50 mm; eluents: water / acetonitrile, 0.1% formic acid

>  <compound>
CSc1nc2ccc3nc(NC(=O)c4ccc([N+](=O)[O-])o4)sc3c2s1

>  <RP-LC retention time, s>
930

$$$$
>  <compound>
COc1cccc(CNC(=O)C2(C)Oc3cccnc3N(C)C2=O)c1 (stereo not given)

>  <RP-LC retention time, s>
748

$$$$
>  <compound>
CCCc1cc(C2CCCN2C(=O)Nc2ccccc2C)no1 (stereo not given)

>  <RP-LC retention time, s>
902

$$$$
>  <compound>
CCC(c1cccs1)N1C(=O)[C@H]2CN(S(=O)(=O)c3ccc(C(C)C)cc3)C[C@H]2C1=O (stereo not given in full)

>  <RP-LC retention time, s>
1140

$$$$
>  <compound>
COc1ccc(-c2ncc3c(=O)n(Cc4ccccc4C)c(=O)n(C)c3n2)cc1

>  <RP-LC retention time, s>
679

$$$$
>  <compound>
Cc1nnc(-c2coc(S(=O)(=O)N3CCC(N4CCCCC4)CC3)c2)o1

>  <RP-LC retention time, s>
615

$$$$
>  <compound>
CC(CCc1ccccc1)NC(=O)Cn1nc2n(c1=O)CCCC2 (stereo not given)

>  <RP-LC retention time, s>
716

$$$$
>  <compound>
COCC(=O)N1CCC2(CC1)NC(=O)N(CCc1ccccc1)C2=O

>  <RP-LC retention time, s>
631

$$$$
>  <compound>
Cc1ccc(CNc2c(-c3cccc(Cl)c3)nc3ncccn23)cc1

>  <RP-LC retention time, s>
901

$$$$
>  <compound>
COc1ccc(NC(=O)C2CCN(S(=O)(=O)c3ccc4[nH]c(=O)ccc4c3)CC2)cc1Cl

>  <RP-LC retention time, s>
752

$$$$
>  <compound>
Cc1cc(OCC(O)Cn2c(C3CC3)nc3ccccc32)cc(C)c1Cl (stereo not given)

>  <RP-LC retention time, s>
795

$$$$
>  <compound>
CCc1nncn1C1CCN(C(=O)c2cc(C)cc(C)c2)CC1

>  <RP-LC retention time, s>
655

$$$$
>  <compound>
Cc1ccc(-n2c(SCc3nc(-c4ccc(F)cc4)no3)nc3cc4c(cc3c2=O)OCO4)cc1

>  <RP-LC retention time, s>
1220

$$$$
>  <compound>
O=C(CN1CCCCC1c1nc(-c2cccc(F)c2)no1)Nc1cccc(F)c1 (stereo not given)

>  <RP-LC retention time, s>
967

$$$$
>  <compound>
Cc1noc([C@@H]2CC(F)(F)CN2C(=O)c2cc(C3CC3)[nH]n2)n1

>  <RP-LC retention time, s>
726

$$$$
>  <compound>
CCOCC(=O)NCCNC(=O)c1ccc(NC(C)=O)cc1

>  <RP-LC retention time, s>
570

$$$$
>  <compound>
CN(C)c1ccc(C(=O)NC2CCN(c3ccccc3)C2=O)cc1 (stereo not given)

>  <RP-LC retention time, s>
713

$$$$
>  <compound>
CS(=O)(=O)Nc1ccc(C2(C(=O)NCc3ccc(F)cc3)CCCCC2)cc1

>  <RP-LC retention time, s>
897

$$$$
>  <compound>
COc1ccc2c(CCNC(=O)c3ccc4c(c3)OCCO4)c[nH]c2c1

>  <RP-LC retention time, s>
684

$$$$
>  <compound>
CCN1C(=O)COc2ccc(-c3noc(Cc4cccc(OC)c4)n3)cc21

>  <RP-LC retention time, s>
1000

$$$$
